Hi there, I'd appreciate the recorded inhibition for every entry that follows.
# experiment description: growth suppression of yeast trafficking mutant, preliminary HTS, modulators of trafficking downstream of Golgi apparatus project, 1536-format plate, OD 615 nm (AID 637)
# stated conditions: yeast transport mutant growth, absorbance 615 nm, 18 h; active compounds read high
The response must be a number in % with no trailing unit.

Ask: Let me know recorded inhibition for `COc1ccccc1NC(=O)CSc1nnc(-c2ccncc2)o1` , thanks.
Reply: -4.33

Ask: Let me know recorded inhibition for `O=C(CN1CCCN(S(=O)(=O)c2ccc(F)cc2)CC1)Nc1ccccc1Br` , thanks.
Reply: -1.48

Ask: Let me know recorded inhibition for `Cc1oc2c(c1C(=O)NCc1ccccc1)CCCC2` , thanks.
Reply: -1.64

Ask: Let me know recorded inhibition for `Nn1cnnc1SCC(=O)Nc1ccc2c(c1)OCCO2` , thanks.
Reply: 8.41

Ask: Let me know recorded inhibition for `CCn1cc(C(=O)NCc2ccco2)c(=O)c2cc(F)c(N3CCN(C(=O)c4ccco4)CC3)cc21` , thanks.
Reply: -1.45

Ask: Let me know recorded inhibition for `CC(C)(C)OC(=O)N1CCN(c2ccc(NC(=O)c3cc4ccccc4oc3=O)cc2)CC1` , thanks.
Reply: 1.59

Ask: Let me know recorded inhibition for `Cc1ccc(-n2ncc3c(=O)n(CC(=O)N4CCCc5ccccc54)cnc32)cc1C` , thanks.
Reply: -2.73

Ask: Let me know recorded inhibition for O=C(O)c1cccc(NC(=O)C2C3C=CC(C3)C2C(=O)OCC(F)(F)C(F)F)c1 (stereo unspecified) , thanks.
Reply: -1.33

Ask: Let me know recorded inhibition for O=C1CC(c2ccccc2)NC(=O)N1 (stereo unspecified) , thanks.
Reply: -0.36

Ask: Let me know recorded inhibition for Cc1ccc(O)c(-c2cc(C(=O)Nc3ccc(S(=O)(=O)N4CC(C)OC(C)C4)cc3)[nH]n2)c1 (stereo unspecified) , thanks.
Reply: -1.59

Ask: Let me know recorded inhibition for CC1(C2(O)CC(c3ccccc3)ON2)CCCCC1 (stereo unspecified) , thanks.
Reply: -2.36

* * *

# experiment description: inhibitors of the yeast RAM network, pilot screen, dse1pr::URA3 reporter, 5-FOA selection (AID 869);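 further: 0% = DMSO wells with no growth and 100% = 10 µM 1-NA-PP1 with full growth; RAM network block rescues cells from 5-FOA so hits raise OD615 growth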
# stated conditions: S. cerevisiae dse1pr::URA3 5-FOA growth, OD615, 2 d; at 10 µM; active compounds read high; strain carries analog-sensitive mutant Cbk1 kinase
observable: inhibition (%)
The response must be a number in % with no trailing unit.

Ask: Let me know recorded inhibition for `Cc1csc(NC(=O)CSc2nnc(Cc3cccn3C)n2-c2ccc(F)cc2)n1` , thanks.
Reply: 4.11

Ask: Let me know recorded inhibition for Cc1ccc(-c2cc(C(F)F)nc(NCC3CCCO3)n2)cc1 (stereo not given) , thanks.
Reply: 1.38

Ask: Let me know recorded inhibition for `O=C(COC(=O)c1cnccn1)c1ccc(OC(=O)c2ccccc2)cc1` , thanks.
Reply: 2.84

Ask: Let me know recorded inhibition for `Cc1cccc(-n2c(=O)cc(N3CCN(c4ccc(F)cc4)CC3)[nH]c2=O)c1` , thanks.
Reply: 4.09

Ask: Let me know recorded inhibition for CCOC(=O)c1ccccc1NC1c2ccccc2C(=O)N1C1CCN(C(=O)OCC)CC1 (stereo not given) , thanks.
Reply: 1.9

Ask: Let me know recorded inhibition for `O=C(NCc1nnc(SCC(=O)N2CCC(Cc3ccccc3)CC2)o1)c1ccccc1F` , thanks.
Reply: 1.69

Ask: Let me know recorded inhibition for `O=C(Oc1cc2oc(=O)c3c(c2cc1Cl)CCCC3)c1ccco1` , thanks.
Reply: 1.97

Ask: Let me know recorded inhibition for Cc1ccc(CCNC(=O)C2CCCN2S(=O)(=O)c2ccc3c(c2)CCC(=O)N3)cc1 (stereo not given) , thanks.
Reply: 2

Ask: Let me know recorded inhibition for `Cn1cccc1Cc1nnc(SCC(=O)N2CCOCC2)n1-c1ccc(F)cc1` , thanks.
Reply: -0.47

Ask: Let me know recorded inhibition for `CCOc1ccccc1N1C(=O)c2ccc(C(=O)Nc3cccnc3)cc2C1=O` , thanks.
Reply: 3.15
